# System: Influenza A virus
# MEASUREMENT_PROTOCOL: Antiviral activity against Influenza A virus (A/WSN/1933(H1N1)) infected in MDCK cells assessed as reduction in virus-induced cytopathic effect measured everyday
# Format: functional, organism-based
# ASSAY_CONDITIONS: read-out: pIC50 (converted)
MEASUREMENT_NAME: IC50 (nM)
Give bare numbers, in nM.

Solved cases (2 shown):
1. CC(=O)N[C@H]1[C@H]([C@H](O)[C@H](O)CO)OC(C(=O)O)=C[C@@H]1NC(=N)NC(=O)CC12CC3CC(CC(C3)C1)C2; 275
2. COc1ccccc1CCC(=O)NC(=N)N[C@H]1C=C(C(=O)O)O[C@@H]([C@H](O)[C@H](O)CO)[C@@H]1NC(C)=O; 196

Lab note: each molecule below needs its IC50 filled in.
1. CCC(C)C(=O)NC(=N)N[C@H]1C=C(C(=O)O)O[C@@H]([C@H](O)[C@H](O)CO)[C@@H]1NC(C)=O (some centres not stated)
2. CC(=O)N[C@H]1[C@H]([C@H](O)[C@H](O)CO)OC(C(=O)O)=C[C@@H]1NC(=N)NCCc1ccc2ccccc2c1
3. CC(=O)N[C@H]1[C@H]([C@H](O)[C@H](O)CO)OC(C(=O)O)=C[C@@H]1NC(=N)NC(=O)CCc1ccccc1
4. CC(=O)N[C@H]1[C@H]([C@H](O)[C@H](O)CO)OC(C(=O)O)=C[C@@H]1NC(=N)NC(=O)/C=C/c1cc(F)cc(F)c1
5. CC(=O)N[C@H]1[C@H]([C@H](O)[C@H](O)CO)OC(C(=O)O)=C[C@@H]1NC(=N)NC(=O)CCc1ccccc1C(F)(F)F

774
34700
203
166
332

###

# MEASUREMENT_PROTOCOL: Cytotoxicity against MDCK cells assessed as reduction in cell viability after 72 hrs by CellTiter-Glo assay
# Assay type: cell-based, Canis lupus familiaris
# ASSAY_CONDITIONS: dog
Can you tell me CC50 at 72 h for the items I'm about to list?

Solved cases (2 shown):
1. CC(=O)N[C@H]1[C@H]([C@H](O)[C@H](O)CO)OC(C(=O)O)=C[C@@H]1NC(=N)N [ZANAMIVIR]; > 100 µM
2. CC(=O)N[C@H]1[C@H]([C@H](O)[C@H](O)CO)OC(C(=O)O)=C[C@@H]1NC(=N)NC(=O)Cc1ccc(F)cc1; > 100 µM

Next, consider the following molecule.
Reported CC50 at 72 h of CC(=O)N[C@@H]1C(NC(=N)NC(=O)c2ccc(-c3ccc(O)cc3)cc2)C=C(C(=O)O)O[C@H]1[C@H](O)C(O)CO (single isomer, unassigned) : > 100 µM

###

Can you tell me IC50 for the items I'm about to list?
# System: Influenza A virus
# MEASUREMENT_PROTOCOL: Antiviral activity against Influenza A virus (A/WSN/1933(H1N1)) infected in MDCK cells assessed as reduction in virus-induced cytopathic effect measured everyday
# Format: functional, organism-based
# ASSAY_CONDITIONS: read-out: IC50
Numbers only, in nM.

1. CC(=O)N[C@@H]1C(NC(=N)NC(=O)c2ccc(-c3ccc(O)cc3)cc2)C=C(C(=O)O)O[C@H]1[C@H](O)C(O)CO (single isomer, unassigned); 6950
2. CC(=O)N[C@H]1[C@H]([C@H](O)[C@H](O)CO)OC(C(=O)O)=C[C@@H]1NC(=N)NC(=O)Cc1ccc(F)cc1; 670

Reported IC50 of `CC(=O)N[C@H]1[C@H]([C@H](O)[C@H](O)CO)OC(C(=O)O)=C[C@@H]1NC(=N)N` : 873

###

Can you tell me selectivity ratio for the items I'm about to list?
# MEASUREMENT_PROTOCOL: Selectivity index, ratio of CC50 for MDCK cells to IC50 for Influenza A virus (A/WSN/1933(H1N1))
# Format: toxicity
# ASSAY_CONDITIONS: dog, read-out: Ratio CC50/IC50

Solved cases (2 shown):
1) CC(=O)N[C@H]1[C@H]([C@H](O)[C@H](O)CO)OC(C(=O)O)=C[C@@H]1NC(=N)NC(=O)Cc1ccc(F)cc1; > 149
2) CC(=O)N[C@@H]1C(NC(=N)NC(=O)c2ccc(-c3ccc(O)cc3)cc2)C=C(C(=O)O)O[C@H]1[C@H](O)C(O)CO (single isomer, unassigned); > 14

Next, consider the following compound.
Reported selectivity ratio of CC(=O)N[C@H]1[C@H]([C@H](O)[C@H](O)CO)OC(C(=O)O)=C[C@@H]1NC(=N)N [ZANAMIVIR] : > 115

###

Can you tell me IC50 for the items I'm about to list?
# System: Influenza A virus
# MEASUREMENT_PROTOCOL: Antiviral activity against Influenza A virus (A/WSN/1933(H1N1)) infected in MDCK cells assessed as reduction in virus-induced cytopathic effect measured everyday
# Type: functional, organism-based
# ASSAY_CONDITIONS: read-out: pIC50 (converted)
Numbers only, in nM.

Solved cases (5 shown):
1. CC(=O)N[C@H]1[C@H]([C@H](O)[C@H](O)CO)OC(C(=O)O)=C[C@@H]1NC(=N)NC(=O)CSc1ccccc1; 189
2. CC(=O)N[C@H]1[C@H]([C@H](O)[C@H](O)CO)OC(C(=O)O)=C[C@@H]1NC(=N)NC(=O)CSc1ccc2ccccc2c1; 20.1
3. CC(=O)N[C@H]1[C@H]([C@H](O)[C@H](O)CO)OC(C(=O)O)=C[C@@H]1NC(=N)NC(=O)Cc1cccc2ccccc12; 98.4
4. CC(=O)N[C@H]1[C@H]([C@H](O)[C@H](O)CO)OC(C(=O)O)=C[C@@H]1NC(=N)NC(=O)CCc1ccccc1C; 462
5. CC(=O)N[C@H]1[C@H]([C@H](O)[C@H](O)CO)OC(C(=O)O)=C[C@@H]1NC(=N)NC(=O)CCCCC1CCCCC1; 260

Lab note: each compound below needs its IC50 filled in.
1. CC(=O)N[C@H]1[C@H]([C@H](O)[C@H](O)CO)OC(C(=O)O)=C[C@@H]1NC(=N)NCCSc1ccccc1
2. CC(=O)N[C@H]1[C@H]([C@H](O)[C@H](O)CO)OC(C(=O)O)=C[C@@H]1NC(=N)NC(=O)CCCCCCCCCCOc1ccccc1
3. CC(=O)N[C@H]1[C@H]([C@H](O)[C@H](O)CO)OC(C(=O)O)=C[C@@H]1NC(=N)NC(=O)CCCOc1ccccc1
4. CC(=O)N[C@H]1[C@H]([C@H](O)[C@H](O)CO)OC(C(=O)O)=C[C@@H]1NC(=N)NC(=O)CCCc1ccc(N)cc1

39400
203
397
421

Lab note: each compound below needs its IC50 filled in.
1. COc1ccccc1CC(=O)NC(=N)N[C@H]1C=C(C(=O)O)O[C@@H]([C@H](O)[C@H](O)CO)[C@@H]1NC(C)=O
2. CC(=O)N[C@H]1[C@H]([C@H](O)[C@H](O)CO)OC(C(=O)O)=C[C@@H]1NC(=N)NC(=O)CC(C)CCC=C(C)C (stereo partly specified)
3. COc1cc(CCC(=O)NC(=N)N[C@H]2C=C(C(=O)O)O[C@@H]([C@H](O)[C@H](O)CO)[C@@H]2NC(C)=O)cc(OC)c1OC
4. CC(=O)N[C@H]1[C@H]([C@H](O)[C@H](O)CO)OC(C(=O)O)=C[C@@H]1NC(=N)NC(=O)CCCCCc1ccccc1
5. CC(=O)N[C@H]1[C@H]([C@H](O)[C@H](O)CO)OC(C(=O)O)=C[C@@H]1NC(=N)NC(=O)Cc1ccccc1

209
541
239
233
46

Lab note: each compound below needs its IC50 filled in.
1. CC(=O)N[C@H]1[C@H]([C@H](O)[C@H](O)CO)OC(C(=O)O)=C[C@@H]1NC(=N)NC(=O)CCOc1ccccc1
2. CC(=O)N[C@H]1[C@H]([C@H](O)[C@H](O)CO)OC(C(=O)O)=C[C@@H]1NC(=N)NC(=O)Cc1ccc2ccccc2c1
3. CC(=O)N[C@H]1[C@H]([C@H](O)[C@H](O)CO)OC(C(=O)O)=C[C@@H]1NC(=N)NC(=O)c1ccc([N+](=O)[O-])cc1
4. CC(=O)N[C@H]1[C@H]([C@H](O)[C@H](O)CO)OC(C(=O)O)=C[C@@H]1NC(=N)NC(=O)CCc1ccccc1Br
5. CC(=O)N[C@H]1[C@H]([C@H](O)[C@H](O)CO)OC(C(=O)O)=C[C@@H]1NC(=N)NC(=O)CCC1CCOC1 (stereo partly specified)
6. CC(=O)N[C@H]1[C@H]([C@H](O)[C@H](O)CO)OC(C(=O)O)=C[C@@H]1NC(=N)NC(=O)CCc1ccc(N)cc1

[180, 55, 152, 134, 1200, 176]

Reported IC50 of `CC(=O)N[C@H]1[C@H]([C@H](O)[C@H](O)CO)OC(C(=O)O)=C[C@@H]1NC(=N)NC(=O)CCc1ccc2ccccc2c1` : 74.8
